Target: SpsB (Staphylococcus aureus)
Construct: using a bacterial membrane fraction as a source of SpsB; from tissue
Sequence (P0A070 whole entry): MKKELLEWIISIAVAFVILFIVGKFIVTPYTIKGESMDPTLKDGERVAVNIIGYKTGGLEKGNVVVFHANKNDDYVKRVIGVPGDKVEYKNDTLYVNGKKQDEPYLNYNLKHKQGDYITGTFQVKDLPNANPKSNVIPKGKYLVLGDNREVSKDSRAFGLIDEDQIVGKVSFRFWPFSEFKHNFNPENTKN
Experiment: Inhibition of SpsB enzyme activity (fluorescence-based assay, bacterial membrane fraction)
Format: biochemical
Experimental: Signal peptidase enzyme activity was measured in a fluorescence-based assay using a bacterial membrane fraction as a source of SpsB (See Bruton et al., 2003, Eur J Med Chem 38:351-356). The SpsB substrate is a synthetic lipopeptide, decanoyl-K(DABCYL)-TPTAKA↓ASKKD-D(EDANS)—NH2 (prepared by JPT Peptide Technologies, Berlin, Germany). […] SpsB mediated cleavage of the peptide substrate was detected as an increase in fluorescence (excitation 340 nm/emission 460 nm).
pIC50: −log10 of the molar value.
Measured quantity: pIC50

Known pIC50 results, listed for orientation:
[ask] What does the record list as pIC50 for CCCc1ccc(-c2ccc(C(=O)NCCC(=O)N3CCC[C@H]3C(=O)N(C)[C@@H]3C(=O)N[C@@H](C)C(=O)N[C@H](C(=O)O)Cc4ccc(O)c(c4)-c4cc3ccc4O)cc2)cc1 ?
[reply] 7.30 to 8.00

[ask] What does the record list as pIC50 for CCCc1ccc(-c2ccc(C(=O)NCCC(=O)N[C@@H](CCCCNC=N)C(=O)N(C)[C@@H]3C(=O)N[C@@H](C)C(=O)N[C@H](C(=O)O)Cc4ccc(O)c(c4)-c4cc3ccc4O)cc2)cc1 ?
[reply] > 8.00

Further cases:
[ask] What does the record list as pIC50 for C[C@@H]1NC(=O)[C@@H](N(C)C(=O)C(CCCCN)NC(=O)CCNC(=O)c2ccc(-c3ccc(-c4ccccc4)cc3)cc2)c2ccc(O)c(c2)-c2cc(ccc2O)C[C@@H](C(=O)O)NC1=O.O=C(O)C(F)(F)F (stereo partly drawn) [EXAMPLE 7, trifluoroacetate] ?
[reply] 7.30 to 8.00
